// data source = patent US4390540A

System: heart frequency
Assay: Heart frequency (tachycardia) in conscious sheep dogs
Format: in vivo
Conditions: 3 mg/kg, oral
Let's look at some compounds and their measured Heart frequency Δ% (percentage variation).

Solved entries (count: 4):
>>> print(df.to_string())
                                   compound  result
0          Cc1c(Br)ccc2c1CNC1=NC(=O)CN12.Cl      0%
1  CC1C(=O)N=C2NCc3c(ccc(Cl)c3Cl)N21.Cl (centres unmarked)    +16%
2         COc1ccc2c(c1Cl)CNC1=NC(=O)CN12.Cl    +20%
3               Cl.O=C1CN2C(=N1)NCc1ccccc12     +4%

Recall the recorded Heart frequency Δ% (percentage variation) for "Cc1ccc2c(c1)CNC1=NC(=O)CN12.Cl" with heart frequency and state it.
+6%

Queued: "Cc1cccc2c1CNC1=NC(=O)CN12.Cl"
-12%

How about "Cc1cccc2c1N1CC(=O)N=C1NC2.Cl" ?
-8%

Same thing, different compound: "Cc1c(Cl)ccc2c1CNC1=NC(=O)CN12.Cl"
+6%

###

System: left ventricular pressure (LVP)
Assay: Positive inotropic activity (dLVP/dtmax) in conscious sheep dogs
Type: in vivo
Details: Canis lupus familiaris, 1 mg/kg, oral, read-out: Inotropy Δ% (percentage variation of dLVP/dtmax)
OBSERVED PROPERTY: change in vivo at 1 mg/kg (%)
Give the quantity in %, number only.

Example cases with answers are listed next.
                                   compound  uom  readout_number
0  Cc1c(Cl)ccc2c1CNC1=NC(=O)CN12.Cl [hydrochloride]    %              27
1  Cc1cccc2c1N1CC(=O)N=C1NC2.Cl [hydrochloride]    %              27
2  Cl.O=C1CN2C(=N1)NCc1c2ccc(Cl)c1Cl [hydrochloride]    %              44

Sample Cc1cccc2c1CNC1=NC(=O)CN12.Cl [hydrochloride] — what was its change in vivo at 1 mg/kg?
15

Continue with Cc1c(Br)ccc2c1CNC1=NC(=O)CN12.Cl [hydrochloride]
8

What do we get for COc1ccc2c(c1Cl)CNC1=NC(=O)CN12.Cl [hydrochloride] ?
10

###

Test system: heart frequency
Assay: Heart frequency (tachycardia) in conscious sheep dogs
Type: in vivo
Conditions: 3 mg/kg, oral
OBSERVED PROPERTY: Heart frequency Hrs. (duration of activity) (h)

>>> print(df.to_string())
                                   compound  uom  readout_number
0  CC1C(=O)N=C2NCc3c(ccc(Cl)c3Cl)N21.Cl (centres unmarked)    h               8
1              Cc1cccc2c1N1CC(=O)N=C1NC2.Cl    h               6
2            Cc1ccc2c(c1)CNC1=NC(=O)CN12.Cl    h               1
3              Cc1cccc2c1CNC1=NC(=O)CN12.Cl    h               5
4          Cc1c(Br)ccc2c1CNC1=NC(=O)CN12.Cl    h               4
5               Cl.O=C1CN2C(=N1)NCc1ccccc12    h             2.5

A. Cc1c(Cl)ccc2c1CNC1=NC(=O)CN12.Cl
B. COc1ccc2c(c1Cl)CNC1=NC(=O)CN12.Cl
Recorded Heart frequency Hrs. (duration of activity) values differ for A and B ; which one is higher? Mark your selection by writing its label.
B

###

Test system: heart frequency
Test: Heart frequency (tachycardia) in conscious sheep dogs
Type: in vivo
Details: 1 mg/kg, oral
OBSERVED PROPERTY: Heart frequency Hrs. (duration of activity) (h)

Below, each entry is followed by its recorded Heart frequency Hrs. (duration of activity) result.
In [3]: df
Out[3]:
                        smiles_input  readout_number
0  COc1ccc2c(c1Cl)CNC1=NC(=O)CN12.Cl               5
1       Cc1cccc2c1N1CC(=O)N=C1NC2.Cl             5.5

a. Cc1c(Cl)ccc2c1CNC1=NC(=O)CN12.Cl
b. Cc1cccc2c1CNC1=NC(=O)CN12.Cl
For the pair a and b , which entry has the numerically smaller recorded Heart frequency Hrs. (duration of activity)? Lab note: record the label of whichever item you select.
b
(b: 3.5 h, a: 5 h)

###

Each item that follows carries a reported change in vivo at 3 mg/kg.
System: left ventricular pressure (LVP)
Assay: Positive inotropic activity (dLVP/dtmax) in conscious sheep dogs
Format: in vivo
Details: Canis lupus familiaris, 3 mg/kg, oral, read-out: Inotropy Δ% (percentage variation of dLVP/dtmax)
The reply should be a number in %, with the unit left off.

As a guide, the following entries are already answered.
>>> df
                                   compound                              tgt  uom  readout_number
0  Cl.O=C1CN2C(=N1)NCc1ccccc12 [hydrochloride]  left ventricular pressure (LVP)    %              79
1  Cc1cccc2c1CNC1=NC(=O)CN12.Cl [hydrochloride]  left ventricular pressure (LVP)    %              32
2  Cc1ccc2c(c1)CNC1=NC(=O)CN12.Cl [hydrochloride]  left ventricular pressure (LVP)    %              33

Find change in vivo at 3 mg/kg (left ventricular pressure (LVP)) for the entry Cc1c(Cl)ccc2c1CNC1=NC(=O)CN12.Cl [hydrochloride]
7
